Molecular target: CDK4 (Homo sapiens (Human))
Experiment: Phospho-Serine 795 Rb ELISA assay in JEKO-1 cells
Conditions: overnight treatment, phospho-Rb S795, read-out: CDK4 pRB S795 ELISA JEKO-1 cells IC50
pIC50: −log10 of the molar value. Counter-ions that a name gives are not always drawn.
measured.quantity: pIC50

CCS(=O)(=O)N1CC[C@@H](Nc2ncc(Cl)c(-c3cc(F)c4nc(C)n(C5COC5)c4c3)n2)[C@H](O)C1 [Example F08] :: 6.96

(P) C[C@H]1COCc2nc3c(F)cc(-c4nc(N[C@@H]5CCN(S(C)(=O)=O)C[C@H]5O)ncc4Cl)cc3n21 [Example A10]
(Q) CN(C)CCN1CC[C@@H](Nc2ncc(Cl)c(-c3cc(F)c4ncn(C(C)(C)C)c4c3)n2)[C@H](O)C1 [Example F06, formic acid salt]
Q: Select the item whose pIC50 value is smaller, choosing between P and Q . Reply with the label of the item you choose.
A: Q
(Q: 6.79, P: 7.14)

###

Target: CDK4/Cyclin D1 (Homo sapiens (Human), UniProt P11802)
Sequence (P11802 whole entry): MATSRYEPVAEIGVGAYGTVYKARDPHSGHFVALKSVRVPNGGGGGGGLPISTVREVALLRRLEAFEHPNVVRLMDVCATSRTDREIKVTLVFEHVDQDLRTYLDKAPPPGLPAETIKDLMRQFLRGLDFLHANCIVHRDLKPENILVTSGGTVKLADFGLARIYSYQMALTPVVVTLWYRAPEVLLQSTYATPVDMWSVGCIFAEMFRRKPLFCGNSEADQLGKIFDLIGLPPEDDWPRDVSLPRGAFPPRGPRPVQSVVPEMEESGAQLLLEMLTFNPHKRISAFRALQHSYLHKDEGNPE
Sequence (P24385 whole entry partner): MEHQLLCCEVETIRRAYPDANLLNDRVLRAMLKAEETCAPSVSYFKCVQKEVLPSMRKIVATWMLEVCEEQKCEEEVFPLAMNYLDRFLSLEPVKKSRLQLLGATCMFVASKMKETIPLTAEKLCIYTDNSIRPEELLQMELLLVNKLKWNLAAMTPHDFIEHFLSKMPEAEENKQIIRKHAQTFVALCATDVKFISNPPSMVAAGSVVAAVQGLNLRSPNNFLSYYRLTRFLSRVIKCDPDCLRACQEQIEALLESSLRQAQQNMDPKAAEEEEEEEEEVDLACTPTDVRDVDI
Assay: CDK4/Cyclin D1 mobility shift assay
Conditions: activated CDK4/Cyclin D1, 3.5 mM ATP, Morrison fit; read-out: CDK4D1 Ki
pKi: −log10 of the molar value.
measured.quantity: pKi

Recorded pKi, per entry:
Cc1nc2c(F)cc(-c3nc(N[C@@H]4CCN(S(C)(=O)=O)C[C@H]4O)ncc3Cl)cc2n1[C@H](C)CN :: 9.30
Cc1nc2ccc(-c3nc(N[C@@H]4CCN(S(C)(=O)=O)C[C@H]4O)ncc3F)cc2n1C(C)(C)C :: 10.00
CC1(n2c(CO)nc3c(F)cc(-c4nc(N[C@@H]5CCOC[C@H]5O)ncc4Cl)cc32)CC1 :: 9.05
CC(C)(C)n1cnc2c(F)cc(-c3nc(N[C@@H]4CCN(C(=O)C5(N)CC(F)(F)C5)C[C@H]4O)ncc3Cl)cc21 :: 9.30
CC1(C)OCCn2nc3c(F)cc(-c4nc(N[C@@H]5CCOC[C@H]5O)ncc4Cl)cc3c21 :: 9.00
CC(C)n1cnc2c(F)cc(-c3nc(N[C@@H]4CCN(S(C)(=O)=O)C[C@H]4O)ncc3C(F)(F)F)cc21 :: 8.14
C[C@H]1COCc2nc3c(F)cc(-c4nc(N[C@@H]5CCN(S(C)(=O)=O)C[C@H]5O)ncc4Cl)cc3n21 :: 9.22
CC(C)n1cnc2c(F)cc(-c3nc(N[C@@H]4CCN(C(=O)C5(F)CNC5)C[C@H]4O)ncc3Cl)cc21 :: 9.30
Cc1nc2cc(Cl)c(-c3nc(N[C@@H]4CCN(S(C)(=O)=O)C[C@H]4O)ncc3F)cc2n1C(C)C :: 8.28
Cc1nc2cc(F)c(-c3ccnc(N[C@@H]4CCN(S(C)(=O)=O)C[C@H]4O)n3)cc2n1C(C)C :: 8.48

(A) Cc1nc2c(F)cc(-c3nc(N[C@H]4CCN(S(C)(=O)=O)C[C@@H]4O)ncc3F)cc2n1C(C)C
(B) CCc1cnc(N[C@@H]2CCN(S(C)(=O)=O)C[C@H]2O)nc1-c1cc(F)c2nc(C)n(C(C)C)c2c1
(C) COCc1nc2c(F)cc(-c3nc(N[C@@H]4CCN(S(C)(=O)=O)C[C@H]4O)ncc3Cl)cc2n1C(C)C
(D) CC(C)n1c([C@H](C)O)nc2c(F)cc(-c3cc(N[C@@H]4CCOC[C@H]4O)ncc3Cl)cc21
(E) Cc1cc(-c2nc(N[C@@H]3CCN(S(C)(=O)=O)C[C@H]3O)ncc2F)cc2c1nc(C)n2C(C)C
Q: Sort low-to-high on pKi, please. Output the labels ranked as instructed.
A: B, A, E, D, C
(B: 7.58, A: 8.44, E: 8.74, D: 9.00, C: 9.52)

###

Biological target: CDK4 (Homo sapiens (Human), UniProt P11802)
Sequence (P11802 2-303): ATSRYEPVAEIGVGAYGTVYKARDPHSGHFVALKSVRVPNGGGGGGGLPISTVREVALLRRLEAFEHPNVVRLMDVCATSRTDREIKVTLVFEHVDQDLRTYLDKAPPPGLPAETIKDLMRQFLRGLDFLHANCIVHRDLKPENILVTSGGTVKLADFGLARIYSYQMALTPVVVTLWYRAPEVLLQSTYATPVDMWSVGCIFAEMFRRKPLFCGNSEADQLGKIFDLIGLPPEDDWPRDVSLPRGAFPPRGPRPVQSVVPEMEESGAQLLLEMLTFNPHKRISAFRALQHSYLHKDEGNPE
Sequence (P24385 whole entry partner): as the sequence (P24385 whole entry partner) above
Experiment: Phospho-Serine 795 Rb ELISA assay in JEKO-1 cells
Settings: overnight treatment, phospho-Rb S795, read-out: CDK4 pRB S795 ELISA JEKO-1 cells IC50
measured.quantity: IC50 (nM)

Recorded IC50, per entry:
C[C@@H]1COCc2nc3c(F)cc(-c4nc(N[C@@H]5CCN(S(C)(=O)=O)C[C@H]5O)ncc4Cl)cc3n21 [Example A11] :: 123
CC(C)(C)n1cnc2ccc(-c3cc(N[C@@H]4CCN(C(=O)CO)C[C@H]4O)ncc3Cl)nc21 [Example F22] :: 61.3
Cc1nc2ccc(-c3nc(N[C@@H]4CCN(S(C)(=O)=O)C[C@H]4O)ncc3F)cc2n1C(C)(C)C [Example A78] :: 26.4
CC(C)n1c(C2CNC2)nc2c(F)cc(-c3nc(N[C@@H]4CCOC[C@H]4O)ncc3Cl)cc21 [Example C02] :: 584

(1) CC(C)n1c(CN)nc2c(F)cc(-c3nc(N[C@@H]4CCOC[C@H]4O)ncc3Cl)cc21 [Example A54]
(2) CC(C)n1c(CC(N)C(F)F)nc2c(F)cc(-c3nc(N[C@@H]4CCOC[C@H]4O)ncc3Cl)cc21 (single isomer, unassigned) [Example A57]
(3) Cc1nc2c(F)cc(-c3ccnc(N[C@@H]4CCN(S(C)(=O)=O)C[C@H]4O)n3)cc2n1C(C)C [Example A04]
Q: Sort low-to-high on IC50, please. Output the labels ranked as instructed.
A: 2, 1, 3
(2: 49 nM, 1: 173 nM, 3: 330 nM)

###

Biological target: CDK6/Cyclin D3 (Homo sapiens (Human), UniProt Q00534)
Sequence (Q00534 whole entry): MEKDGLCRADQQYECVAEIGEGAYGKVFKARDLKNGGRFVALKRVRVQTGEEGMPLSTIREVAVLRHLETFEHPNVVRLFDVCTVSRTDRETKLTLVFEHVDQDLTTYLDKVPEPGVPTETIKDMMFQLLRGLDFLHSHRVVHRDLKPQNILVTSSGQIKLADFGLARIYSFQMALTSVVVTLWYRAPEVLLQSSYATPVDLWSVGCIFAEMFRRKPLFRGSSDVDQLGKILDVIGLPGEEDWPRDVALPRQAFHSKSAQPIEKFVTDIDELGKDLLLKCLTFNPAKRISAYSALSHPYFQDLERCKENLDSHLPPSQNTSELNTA
Sequence (P30281 whole entry partner): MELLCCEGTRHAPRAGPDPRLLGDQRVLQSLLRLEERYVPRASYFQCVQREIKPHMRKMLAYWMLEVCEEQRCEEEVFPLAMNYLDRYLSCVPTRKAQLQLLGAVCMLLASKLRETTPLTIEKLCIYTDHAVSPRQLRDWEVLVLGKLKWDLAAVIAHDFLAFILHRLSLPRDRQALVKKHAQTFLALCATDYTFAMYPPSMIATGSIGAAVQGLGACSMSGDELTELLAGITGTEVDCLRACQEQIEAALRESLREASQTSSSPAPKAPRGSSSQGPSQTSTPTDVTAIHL
Assay: CDK6/Cyclin D3 mobility shift assay
Conditions: activated CDK6/Cyclin D3, 3.5 mM ATP, Morrison fit; read-out: CDK6_D3 Ki
measured.quantity: Ki (nM)

Cc1nc2ccc(-c3nc(N[C@@H]4CCN(S(C)(=O)=O)C[C@H]4O)ncc3F)cc2n1C(C)C [Example A76] :: 6.3

(1) CC(C)n1c(C(C)(O)C2CC2)nc2c(F)cc(-c3nc(N[C@@H]4CCOC[C@H]4O)ncc3Cl)cc21 (single isomer, unassigned) [Example A23]
(2) CC(C)n1c(CN(C)C)nc2c(F)cc(-c3nc(N[C@@H]4CCOC[C@H]4O)ncc3Cl)cc21 [Example H02]
Q: Select the item whose Ki value is smaller, choosing between 1 and 2 . Reply with the label of the item you choose.
A: 1
(1: 11.6 nM, 2: 20 nM)
